Origin of values: patent US11427548B2

Entries annotated with measured Dmax
target: Androgen Receptor (Homo sapiens, UniProt P10275); construct: endogenous in cells; host or cells: VCaP cells; test: Androgen Receptor ELISA assay (PathScan AR ELISA) in VCaP cells: AR degradation, Dmax and DC50; type: cell-based; details: VCaP, read-out: VCaP Dmax (%)

>  <Smiles Input>
Cc1ncsc1-c1ccc(CNC(=O)[C@@H]2C[C@@H](O)CN2C(=O)[C@@H](NC(=O)COCCCOCCCCOc2cccc(N3C(=S)N(c4ccc(C#N)c(C(F)(F)F)c4)C(=O)C3(C)C)c2)C(C)(C)C)cc1

>  <System>
Androgen Receptor (Homo sapiens, UniProt P10275)

>  <Dmax>
26 to 50%

$$$$

For the next question, use this compound.
Ask: Note Dmax for the compound shown: Cc1ncsc1-c1ccc(CNC(=O)[C@@H]2C[C@@H](O)CN2C(=O)[C@@H](NC(=O)COCCCCOc2ccc(-c3ccc(N4C(=S)N(c5ccc(C#N)c(C(F)(F)F)c5)C(=O)C45CCC5)cc3)cc2)C(C)(C)C)cc1
Reply: > 71%

----------
Biological target: Androgen Receptor (Homo sapiens)
Construct: endogenous in cells; host or cells: VCaP cells
Sequence (P10275 1-920): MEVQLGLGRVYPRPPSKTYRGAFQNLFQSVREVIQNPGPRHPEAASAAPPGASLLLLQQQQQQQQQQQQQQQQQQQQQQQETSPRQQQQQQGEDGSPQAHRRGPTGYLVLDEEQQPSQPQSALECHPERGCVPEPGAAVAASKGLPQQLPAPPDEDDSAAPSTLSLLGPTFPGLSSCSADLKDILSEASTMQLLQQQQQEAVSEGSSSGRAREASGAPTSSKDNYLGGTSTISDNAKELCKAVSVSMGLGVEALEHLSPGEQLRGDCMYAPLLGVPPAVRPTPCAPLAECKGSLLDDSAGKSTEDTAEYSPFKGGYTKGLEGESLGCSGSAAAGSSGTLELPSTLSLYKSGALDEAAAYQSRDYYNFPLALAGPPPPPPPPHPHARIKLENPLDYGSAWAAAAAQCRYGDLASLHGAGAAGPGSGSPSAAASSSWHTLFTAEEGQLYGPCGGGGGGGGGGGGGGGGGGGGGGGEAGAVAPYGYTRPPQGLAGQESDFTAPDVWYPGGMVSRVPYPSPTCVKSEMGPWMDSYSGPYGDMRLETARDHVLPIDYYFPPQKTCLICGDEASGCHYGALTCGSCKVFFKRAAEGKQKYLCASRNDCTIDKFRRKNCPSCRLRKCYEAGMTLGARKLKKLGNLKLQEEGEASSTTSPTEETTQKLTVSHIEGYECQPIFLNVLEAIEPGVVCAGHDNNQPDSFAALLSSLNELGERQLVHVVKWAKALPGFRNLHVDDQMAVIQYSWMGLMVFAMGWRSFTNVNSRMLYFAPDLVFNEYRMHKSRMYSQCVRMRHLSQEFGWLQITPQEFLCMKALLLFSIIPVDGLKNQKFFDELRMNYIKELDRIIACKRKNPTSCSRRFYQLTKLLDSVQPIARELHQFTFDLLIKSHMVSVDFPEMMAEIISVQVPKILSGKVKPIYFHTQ
Assay: Androgen Receptor ELISA assay (PathScan AR ELISA) in VCaP cells: AR degradation, Dmax and DC50
Assay type: cell-based
Conditions: VCaP, read-out: VCaP Dmax (%)
Listing: Dmax of selected molecules

>  <Molecule>
Cc1ncsc1-c1ccc(CNC(=O)[C@@H]2C[C@@H](O)CN2C(=O)[C@@H](NC(=O)COCCCOCCCCCOc2ccc(N3C(=S)N(c4ccc(C#N)c(Cl)c4)C(=O)C3(C)C)cc2)C(C)(C)C)cc1

>  <Endpoint Name>
Dmax

>  <Reported Value>
51 to 70%

$$$$
>  <Molecule>
Cc1ncsc1-c1ccc(CNC(=O)[C@@H]2C[C@@H](O)CN2C(=O)[C@@H](NC(=O)COCC2CC3(C2)CC(COc2ccc(N4C(=S)N(c5ccc(C#N)c(C(F)(F)F)c5)C(=O)C4(C)C)cc2)C3)C(C)(C)C)cc1 (stereo partly shown)

>  <Endpoint Name>
Dmax

>  <Reported Value>
> 71%

$$$$
>  <Molecule>
Cc1ncsc1-c1ccc([C@H](C)NC(=O)[C@@H]2C[C@@H](O)CN2C(=O)[C@@H](NC(=O)CN2CCN(CCC3(c4ccc(C(=O)N[C@H]5C(C)(C)[C@H](Oc6ccc(C#N)c(Cl)c6)C5(C)C)cc4)COC3)CC2)C(C)(C)C)cc1

>  <Endpoint Name>
Dmax

>  <Reported Value>
< 25%

$$$$

Next, consider the following molecule.
Ask: Note Dmax for the molecule shown: CC(C)(C)[C@H](NC(=O)COCCCCOc1ccc(-c2ccc(N3C(=S)N(c4ccc(C#N)c(Cl)c4)C(=O)C3(C)C)cc2)nc1)C(=O)N1C[C@H](O)C[C@H]1C(=O)NCc1ccc(-c2cnco2)cc1
Reply: > 71%
